Source: ChEMBL document CHEMBL1141373

# Assay Comment: Plasma concentration in rat at 30 mg/kg, po after 1 hr
# Type: ADME, organism-based
# Parameters: dose 30 mg/kg, route oral
Endpoint: concentration at 1 h (µM)
Give bare numbers, in µM.

// each listed compound needs a value for concentration at 1 h
1. O=C(OCc1ccccc1)N1CCC(CNc2ncccn2)CC1
2. O=C(OCc1ccccc1)N1CCC(CNc2ccccn2)CC1
3. O=C(OCc1ccccc1)N1CCC(CNc2ccncc2)CC1
4. O=C(OCc1ccccc1)N1CCC(CNc2ccncn2)CC1

1. 7.2
2. 0.18
3. 8.1
4. 1.1

###

# Assay Comment: Half life in Beagle dog at 1 mg/kg, iv
# Format: ADME, organism-based, Canis lupus familiaris
# Set-up: dose 1 mg/kg, route intravenous
# Cond: in vivo
Endpoint: half-life (h)
Answers are plain numbers, in h.

Consider "Cc1ccc(COC(=O)N2CCC(CNc3ncccn3)CC2)cc1" . Its measured half-life is 6.9
